Data origin, for the record: PubChem BioAssay AID179

Test system: CEM cells HIV-1 protection, formazan growth assay
protocol summary: NCI AIDS Antiviral Assay
setup conditions: measured here: growth of uninfected CEM cells

# molecule, IC50
records = [
    ("NCCNCCN1C(=O)c2cccc3cccc(c23)C1=O", "7.59 µM"),
    ("CCN(CC)CCCCC1CCN(CC(=O)N2CC(C)C(=O)Nc3ccccc32)CC1 (stereo not drawn)", "> 251 µM"),
    ("O=C1CC(=O)NC(=NNS(=O)(=O)c2ccc(Cl)cc2)N1", "> 200 µM"),
    ("Cc1cc(S(=O)(=O)NC2=NCC(C)(C)CN2)c(S)cc1Cl", "87.1 µM"),
    ("O=c1cc(O)nc(CO)[nH]1", "> 200 µM"),
    ("CC1(C)OCC2(CO1)CSCCCSCC1(COC(C)(C)OC1)CSCCCSC2", "> 10.5 µM"),
    ("CNc1nc2cc(OC)c(OC)cc2c(=O)[nH]1", "191 µM"),
    ("Nc1cccnc1NCC1(CO)CCCC1", "> 200 µM"),
]
